For each record, write down the corresponding SETFA herbicidal damage score.
- System: Setaria faberi
- assay_summary: Post-emergence herbicidal activity, glasshouse pot test
- Format: in vivo
- Design: key: 0 = no damage to plant, 5 = total damage to plant
- assay_setup: Application post-emergence, rate 1000 g/ha, evaluated after 13 days
// return a plain number; no unit text

q: # return recorded SETFA herbicidal damage score for entry CC1=C(Cl)C(=O)N(c2ccc(C(F)(F)F)nn2)C1O (stereo not shown)
a: 4

q: # return recorded SETFA herbicidal damage score for entry COC1=C(C)C(O)N(c2cc(C(C)(C)F)c(-c3ccc(F)cc3)nn2)C1=O (stereo not shown)
a: 5

q: # return recorded SETFA herbicidal damage score for entry CC1=C(Cl)C(=O)N(c2ncc(C#N)c(C(C)(C)C)n2)C1O (stereo not shown)
a: 5

q: # return recorded SETFA herbicidal damage score for entry CCOC(=O)c1ccc(N2C(=O)C(OC)=C(C)C2O)nn1 (stereo not shown)
a: 0

q: # return recorded SETFA herbicidal damage score for entry CC1=C(Cl)C(=O)N(c2cc(C(C)(F)F)ccn2)C1O (stereo not shown)
a: 5

q: # return recorded SETFA herbicidal damage score for entry COC1=C(C)C(O)N(c2cc(C(C)C)c(C(=O)NC(C)(C)C#N)cn2)C1=O (stereo not shown)
a: 5

q: # return recorded SETFA herbicidal damage score for entry CC1=C(Cl)C(=O)N(c2cc(C(F)(F)Cl)ccn2)C1O (stereo not shown)
a: 5

q: # return recorded SETFA herbicidal damage score for entry CC(C)(C)C1=C(Cl)C(=O)N(c2cc(C(F)(F)F)ccn2)C1O (stereo not shown)
a: 0

q: # return recorded SETFA herbicidal damage score for entry CC1=C(Cl)C(=O)N(c2cc(C(C)C)c(Cl)nn2)C1O (stereo not shown)
a: 5

q: # return recorded SETFA herbicidal damage score for entry COC1=C(C)C(O)N(c2cc(C(C)(C)C)ccn2)C1=O (stereo not shown)
a: 5

q: # return recorded SETFA herbicidal damage score for entry COC1=C(C)C(O)N(c2cc(C(C)(C)C)c(Cl)nn2)C1=O (stereo not shown)
a: 5

q: # return recorded SETFA herbicidal damage score for entry CC1=C(Cl)C(=O)N(c2cc(C(F)(F)F)c(-c3cccc(C#N)c3)cn2)C1O (stereo not shown)
a: 4

q: # return recorded SETFA herbicidal damage score for entry COC1=C(C)C(O)N(c2cc(C(C)(F)F)c(C)nn2)C1=O (stereo not shown)
a: 5

q: # return recorded SETFA herbicidal damage score for entry CC1=C(Cl)C(=O)N(c2cc(C(F)(F)F)c(Br)cn2)C1O (stereo not shown)
a: 5

q: # return recorded SETFA herbicidal damage score for entry CC1=C(Cl)C(=O)N(c2cc(C(C)(C)C#N)ccn2)C1O (stereo not shown)
a: 5

q: # return recorded SETFA herbicidal damage score for entry COC1=C(C)C(O)N(c2cc(C(F)(F)F)c(-c3cncnc3)cn2)C1=O (stereo not shown)
a: 5

q: # return recorded SETFA herbicidal damage score for entry CCO/C=C\c1cnc(N2C(=O)C(Cl)=C(C)C2O)cc1C(F)(F)F (stereo not shown)
a: 5

q: # return recorded SETFA herbicidal damage score for entry COC1=C(OC)C(O)N(c2cc(C(F)(F)F)ncn2)C1=O (stereo not shown)
a: 5

q: # return recorded SETFA herbicidal damage score for entry CC1=C(Cl)C(=O)N(c2cc(C)c([N+](=O)[O-])cn2)C1O (stereo not shown)
a: 3

q: # return recorded SETFA herbicidal damage score for entry CCN(C)c1cc(N2C(=O)C(Cl)=C(C)C2O)ncn1 (stereo not shown)
a: 5

q: # return recorded SETFA herbicidal damage score for entry COC1=C(C)C(O)N(c2cc(C)c(C(=O)NC3(C#N)CC3)cn2)C1=O (stereo not shown)
a: 5

q: # return recorded SETFA herbicidal damage score for entry CC1=C(Cl)C(=O)N(c2cc(C(C)(F)F)c(Cl)nn2)C1O (stereo not shown)
a: 5

q: # return recorded SETFA herbicidal damage score for entry CC1=C(Cl)C(=O)N(c2cc(C(F)(F)F)c(-c3nn(C)c4ccccc34)cn2)C1O (stereo not shown)
a: 4

q: # return recorded SETFA herbicidal damage score for entry CC1=C(Cl)C(=O)N(c2cc(C(C)(C)F)c(Cl)nn2)C1O (stereo not shown)
a: 3

q: # return recorded SETFA herbicidal damage score for entry CC1=C(Cl)C(=O)N(c2cc(C(F)(F)F)c(-c3ccc(C#N)cc3)cn2)C1O (stereo not shown)
a: 4

The reported measurements were obtained from patent US9963445B2.
